B1: τ131 (123–566), TPR array, wild type [S. cerevisiae] / τ138 (546–693), eWH-τIR [S. cerevisiae] (parent complex)
chain 1: VLDPEVAQLLSQANEAFVRNDLQVAERLFNEVIKKDARNFAAYETLGDIYQLQGRLNDCCNSWFLAAHLNASDWEFWKIVAILSADLDHVRQAIYCFSRVISLNPMEWESIYRRSMLYKKTGQLARALDGFQRLYMYNPYDANILRELAILYVDYDRIEDSIELYMKVFNANVERREAILAALENALDSSDEESAAEGEDADEKEPLEQDEDRQMFPDINWKKIDAKYKCIPFDWSSLNILAELFLKLAVSEVDGIKTIKKCARWIQRRESQTFWDHVPDDSEFDNRRFKNSTFDSLLAAEKEKSYNIPIDIRVRLGLLRLNTDNLVEALNHFQCLYDETFSDVADLYFEAATALTRAEKYKEAIDFFTPLLSLEEWRTTDVFKPLARCYKEIESYETAKEFYELAIKSEPDDLDIRVSLAEVYYRLNDPETFKHMLVDVVEMR
chain 2: SARSLRSLQRQRAILKVMNTIGGVAYLREQFYESVSKYMGSTTTLDKKTVRGDVDLMVESEKLGARTEPVSGRKIIFLPTVGEDAIQRYILKEKDSKKATFTDVIHDTEIYFFDQTEKNRFHRGKKSVERIRKFQNRQKNAKIKASDD

variants of: B1; assay: ITC; parent: 100 nM
Reported metric: Kd (nM)
Write it as a number; the unit nM goes unstated.

In: Need Kd, item chain 1 E376K
Out: 971

In: Field request: Kd | item: chain 1 E350K
Out: 415
